Measured values drawn from PubChem BioAssay AID720648 for this set.

inhibition by entry:
assay-system: Disintegrin and metalloproteinase domain-containing protein 17 (Homo sapiens)
test-name: inhibition of ADAM17 peptide cleavage – biochemical, QFRET, primary screen (AID 720648);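 note: 0% = DMSO-only wells as the low control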
protocol-conditions: recombinant ADAM17, EDANS/DABCYL FRET peptide cleavage; at 6.95 µM; stronger effect = higher value
Among all 370,000 compounds or so, about 3,100 (0.84%) were called active. The full list was thinned out, with actives kept by preference.
quantity: inhibition (%)

{"columns": ["compound", "measurement-units", "reading"],
 "data": [
  ["C=CCN1C(=O)[C@@H](CC(=O)N2CCN(C(=O)OCC)CC2)[C@]2(C(=O)OCC)CCCCC/C=C/12", "%", -4.2],
  ["COC(=O)c1cccc(NS(C)(=O)=O)c1", "%", -1.45],
  ["CCCC[C@H](C(=O)N(CC)c1ccccc1)[C@@H](O)c1ccc2ccccc2c1", "%", 4.5],
  ["CN1[C@H](Cc2ccccc2)COc2cccc(N3CCSCC3)c2S1(=O)=O", "%", -1.43],
  ["Cc1ccc([C@H]2C[C@H](O)[C@@H](n3cc(COC(=O)c4ccccc4)nn3)CN2C(=O)C2CCCCC2)cc1", "%", -1.37],
  ["COC(CNC(=O)[C@H](Cc1ccccc1)NC1(C(=O)NC2CCCCC2)CCCCC1)OC", "%", -1.27],
  ["O=C(CSc1nc(Nc2ccccc2)nc(N2CCOCC2)n1)Nc1cc(Cl)ccc1O", "%", 10.2],
  ["C=CCN1C(=O)[C@@H](CC(=O)NCCCOCCCC)[C@]2(C(=O)OCC)CCCCC/C=C/12", "%", -0.06],
  ["CCC[C@H]1C(=O)CC[C@@]23CCCN2C(=O)CCC[C@@H]13", "%", -0.61],
  ["CCCCCC(=O)N1C[C@H](O)[C@@H](n2cc(COC(=O)c3ccccc3)nn2)C[C@@H]1c1ccc(C)cc1", "%", 8.64],
  ["COC(=O)[C@H](C(C)C)N1CCc2nnn(Cc3ccc(C)cc3)c2-c2ccccc2S1(=O)=O", "%", 2.97],
  ["COc1ccc(C(CCN(Cc2ccc(OC)c(OC)c2)C(=O)CCl)c2ccccc2)cc1 (stereo not given)", "%", 12.5],
  ["CCS(=O)(=O)Nc1ccc(C2=NN(S(=O)(=O)c3ccc(F)cc3)C(c3ccco3)C2)cc1 (stereo not given)", "%", 3.46],
  ["COc1ccc(CN(C)C(=O)CC(c2ccccc2)c2ccccc2)cc1", "%", 11],
  ["O=C(COC(=O)c1ccccn1)NNC(=O)c1ccc(Br)cc1", "%", 0.32],
  ["CCCCCCN1C[C@@H](O)[C@H](n2cc(COC(=O)c3ccccc3)nn2)C[C@@H]1c1ccc(Cl)cc1", "%", -1.65],
  ["COc1ccc(C(C(=O)NC2CCCCC2)N(C(=O)CCl)c2ccccc2Cl)cc1 (stereo not given)", "%", -0.76],
  ["COc1cccc(NS(=O)(=O)c2ccc(-c3coc(C)n3)cc2)c1", "%", 0.72],
  ["CC(=O)OC12CCCN(C1)/C(=C/c1ccncc1)C2 (stereo not given)", "%", -1.16],
  ["CCOC(=O)[C@@]12CN(C(=O)OC(C)(C)C)CC=C1N(Cc1ccc(OC)cc1)C(=O)[C@H]2CC(=O)NCc1ccc(OC)c(OC)c1", "%", 1.15],
  ["O=C(Nc1cc(F)cc(F)c1)OC1CCC12CCC(c1ccccc1)CC2 (stereo not given)", "%", 3.79],
  ["COc1ccc(-n2c(SCC(=O)Nc3ccc4cn[nH]c4c3)nnc2-c2cccnc2)cc1", "%", 2.47],
  ["CC[C@@H](CCC(=O)N(c1ccccc1)c1ccccc1)C1CC1", "%", -3.63],
  ["C#CCNC(=O)C[C@H]1C[C@@]2(C(=O)OC)C(=C[C@H](C(C)C)O[C@@H]2C2CC2)N(Cc2ccco2)C1=O", "%", -2.14],
  ["COc1ccccc1C(=O)NCC(=O)NCCSc1ccc(Br)cc1", "%", 2.38],
  ["CCOc1ccc(Nc2nc(Cc3nnc(SCC(=O)c4ccc(C)cc4)o3)cs2)cc1", "%", 13.7],
  ["C[C@@H]1ON(C)[C@H]2C[C@H]3c4[nH]c5cccc(-c6ccc7c(c6)OCO7)c5c4CCN3C[C@@H]12", "%", -16.2],
  ["CN(Cc1ccc(F)cc1)C(=O)COc1ccc2ccccc2c1", "%", -3.83],
  ["Cn1nc(C(F)(F)F)c2cc(NC(=O)OCC(C)(C)C)sc21", "%", 8.91],
  ["COc1ccc(NS(=O)(=O)c2ccc(O)c(C(=O)OCC(=O)NC3CCCCC3)c2)cc1", "%", -2.64],
  ["Cc1ccccc1CN1CCCCC(NC(=O)c2cccc(C#N)c2)C1=O (stereo not given)", "%", -3.86],
  ["O=C(CSc1nc2ccc(Nc3nc(N4CCOCC4)nc(N4CCOCC4)n3)cc2s1)NCc1ccco1", "%", -1.45],
  ["CC(=O)Nc1ccc(C(=O)CSc2nnc(Cc3ccccc3)o2)cc1", "%", 2.43],
  ["Oc1ccc(/C=C/c2c(F)cccc2F)c2cccnc12", "%", -0.42],
  ["COc1ccccc1C(=O)NC1CCCCN(C(C)C)C1=O (stereo not given)", "%", -7.08],
  ["CCOc1ccc(Nc2nc(Cc3nnc(SCC(=O)NC4CCCC4)n3C)cs2)cc1", "%", -1.2],
  ["COc1ccc(CN(CCN2CCOCC2)C(=O)c2ccc(C)cc2)cc1OC", "%", 2.83],
  ["COc1ccc(Cn2cc(COC(=O)N(C)Cc3ccccc3)nn2)cc1", "%", -3.38],
  ["C=CCN1C(=O)[C@@H](CC(=O)NCCCCc2ccccc2)[C@]2(C(=O)OCC)CCCCC/C=C/12", "%", 3.44],
  ["Cc1ccccc1NC(=O)C1CCN(c2ncccn2)CC1", "%", -12.7]
]}
